Biological target: GII.3 (norovirus GII.3)
Test: ELISA
pEC50: −log10 of the molar value.
Quick rule for you: pEC50 at 8 or higher means Met, lower means Not met.

In: Say whether 232A.2 (antibody, V domains shown) VH: QVQLKQWGAGLLKSSETLSLTCAFNGNSFGAFYWSWIRLSPGKGLEWIGEVNYLGGADYNPSLKSRVTMSADTSKRQFSLSLKSVTAADTGVYFCARGRPHDYSPGSYSRPRRYYGLDVWGQGTTVTVSS VL: EIVLTQSPATLSLSPGDSATLSCRASQAVSTTYLAWYQQTRGQAPRLLIHGTYTRAIGIPDKFSGTGSGTDFTLTISGLAPEDFAVYYCQQYSSSPYTFGQGTKIEIT shows pEC50 of 8 or more.
Out: Met

In: Does pEC50 meet or surpass 8 for 202A.1 (antibody, V domains shown) VH: QVQLVQSGAEVKKPGASVKVSCKASEYTFTGYYLQWVRQAPGHGLEWMGWINPSGGTKYSQKFQGRVTMTRDTSITTVYMELSRLRSDDTAVYYCARDLLRNWGDHDAFDVWGQGTMVTVSS VL: QSVLTQPPSASETPGQGVTISCSGSSSNIGSNFVCWYQQVPGTAPKLLIYKNNQRPSGVPDRFSGSKSGTSASLAISGLRSEDEADYYCSAWDDSLSGPVFGGGTKLTVL ?
Out: Not met

In: Threshold query (pEC50 >= 8) on 178.6 (antibody, V domains shown) VH: QVQLVESGGGVVQPGRSLRLSCAASGFTFSTYGMNWVRQAPGRGLEWVADISYDGSNSRYADSVKGRFTISRDNSKNTLSLQMNGLRTEDTAVYYCAKDWYLAMAGAAFDSWGPGTLVTVSS VL: SSELTQDPVVSVALGQTVRITCQGDSLTTFYASWFQQKPGQAPALVLYGNDNRPSGIPDRFSGSRSGNTASLTITGAQAEDEADYYCNSRDSSGKPSFGGGTKLTVL
Out: Not met

In: Check the entry 168.2 (antibody, V domains shown) VH: QVQLVESGGGVVQPGRSLRLSCAASGFTFSSYAMHWVRQAPGKGLEWVAVISYDGSNKYYADSVKGRFTISRDNSKNTLYLQMNSLRAEDTAVYYCARSVIGYYYYGMDVWGQGTLVTVSS VL: QPVLTQPPSASASLGASVTLTCTLSSGYSNYKVDWYQQRPGKGPRFVMRVGTGGIVGSKGDGIPDRFSVLGSGLNRYLTIKNIQEEDESDYHCGADHGSGILFGGGTKLTVL : does pEC50 equal or exceed 8?
Out: Not met

All values here come from patent US20210324050A1.
